Every entry's value here was drawn from patent US6956036B1.

tested_on: 5-HT2 receptor (Rattus norvegicus, UniProt P14842)
Construct: A7r5 rat vascular smooth muscle cells; endogenous in cells
Sequence (P14842 whole entry): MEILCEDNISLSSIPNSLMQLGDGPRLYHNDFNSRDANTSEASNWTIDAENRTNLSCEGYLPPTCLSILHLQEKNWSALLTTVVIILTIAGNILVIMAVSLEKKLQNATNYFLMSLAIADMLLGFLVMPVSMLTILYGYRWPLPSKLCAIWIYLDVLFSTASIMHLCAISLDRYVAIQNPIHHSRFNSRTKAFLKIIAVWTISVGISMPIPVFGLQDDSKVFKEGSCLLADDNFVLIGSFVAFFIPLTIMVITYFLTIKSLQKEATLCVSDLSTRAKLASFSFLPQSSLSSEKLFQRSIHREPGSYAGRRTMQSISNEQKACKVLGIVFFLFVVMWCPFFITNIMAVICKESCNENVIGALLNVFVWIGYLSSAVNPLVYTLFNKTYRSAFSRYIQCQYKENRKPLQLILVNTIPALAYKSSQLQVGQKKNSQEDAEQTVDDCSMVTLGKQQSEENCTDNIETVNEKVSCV
test_details: 5-HT2 Functional Assay: Phosphoinositide (PI) Turnover Assay
condition_info: [3H]inositol phosphates production in A7r5 rat vascular smooth muscle cells
parameter: EC50
Please state the number and follow it with the unit.

Solved entries:
# compound, tested_on, EC50
data = [
    ("Cc1nn(CC(C)N)c2cc(O)ccc12.O=C(O)/C=C/C(=O)O (centres unmarked) [Example 2, Fumarate]", "5-HT2 receptor (Rattus norvegicus, UniProt P14842)", "483 nM"),
    ("COc1ccc2c(C)nn(CC(C)N)c2c1.O=C(O)/C=C/C(=O)O (centres unmarked) [Example 1, Fumarate]", "5-HT2 receptor (Rattus norvegicus, UniProt P14842)", "578 nM"),
    ("COc1ccc2c(Cl)nn(CC(C)N)c2c1 (centres unmarked)", "5-HT2 receptor (Rattus norvegicus, UniProt P14842)", "541 nM"),
]

Please report EC50 for the following compound: CC(N)Cn1nc(Cl)c2ccc(O)cc21 (centres unmarked)
1050 nM

Please report EC50 for the following compound: COc1ccc2cnn(CC(C)N)c2c1 (centres unmarked)
243 nM

* * *

tested_on: 5-HT2 receptor (Rattus norvegicus, UniProt P14842)
Construct: A7r5 rat vascular smooth muscle cells; endogenous in cells; host or cells: A7r5 rat vascular smooth muscle cells
test_details: 5-HT2 Functional Assay: Phosphoinositide (PI) Turnover Assay
Type: cell-based
condition_info: A7r5 cells; efficacy compared to that of 5-HT (set at 100%)
parameter: Emax (%)
// note: answer is a bare numeric in %

Solved entries:
# compound, Emax [%]
data = [
    ("COc1ccc2c(Cl)nn(CC(C)N)c2c1 (centres unmarked)", 64),
    ("COc1ccc2c(C)nn(CC(C)N)c2c1.O=C(O)/C=C/C(=O)O (centres unmarked) [Example 1, Fumarate]", 71),
    ("Cc1nn(CC(C)N)c2cc(O)ccc12.O=C(O)/C=C/C(=O)O (centres unmarked) [Example 2, Fumarate]", 87),
    ("COc1ccc2cnn(CC(C)N)c2c1 (centres unmarked)", 73),
]

--- query ---
Report measured Emax on 5-HT2 receptor (Rattus norvegicus, UniProt P14842); entry: CC(N)Cn1nc(Cl)c2ccc(O)cc21 (centres unmarked)
84
